assay: Selectivity ratio of HC50 for hemolytic activity against mouse RBC to MIC for methicillin-resistant Staphylococcus aureus; type: toxicity; conditions: mouse red blood cells (erythrocytes)
Reported selectivity ratio values for the following molecules.

MOL: N=C(N)NCCCC[C@@H](CN1CC(=O)N(c2ccc(N3CN(C[C@H](CCCCNC(=N)N)NC(=O)CC45C[C@H]6C[C@@H](C4)C[C@@H](C5)C6)CC3=O)cc2)C1)NC(=O)CC12C[C@H]3C[C@@H](C1)C[C@@H](C2)C3
QUALIFIER: =
selectivity ratio: 250

MOL: CCCCCCCCCCCC(=O)N[C@@H](CCCCN)CN1CC(=O)N(c2ccc(N3CN(C[C@H](CCCCN)NC(=O)CCCCCCCCCCC)CC3=O)cc2)C1
QUALIFIER: >
selectivity ratio: 250

MOL: CCCCCCCCCC(=O)N[C@@H](CCCCN)CNCC(=O)Nc1ccc(NC(=O)CNC[C@H](CCCCN)NC(=O)CCCCCCCCC)cc1
QUALIFIER: >
selectivity ratio: 125

MOL: CCCCCCCCCC(=O)N[C@@H](CCCCNC(=N)N)CN1CC(=O)N(c2ccc(N3CN(C[C@H](CCCCNC(=N)N)NC(=O)CCCCCCCCC)CC3=O)cc2)C1
QUALIFIER: =
selectivity ratio: 125

MOL: CCCCCCCCCC(=O)N[C@@H](CCCCN)CN1CC(=O)N(c2ccc(N3CN(C[C@H](CCCCN)NC(=O)CCCCCCCCC)CC3=O)cc2)C1
QUALIFIER: >
selectivity ratio: 125
